- experimentNotes: Tmax in rat at 3 mg/kg, po
- Assay type: ADME, organism-based
- experimentalParameters: in vivo
readoutKind: Tmax (h)

[
  {
    "recordSmiles": "CC(C)C[C@](C)(N)COc1ccc(-c2ccnc(C(F)F)c2)nc1C(F)F",
    "readoutKind": "Tmax",
    "measurementUnits": "h",
    "readoutValue": 3
  }
]

====

Papp A→B at 2 h, 3 µM reference
- experimentNotes: Permeability across apical to basolateral side in human Caco-2 cells at 3 uM measured after 2 hrs by LC-MS/MS analysis
- Format: ADME, cell-based
- experimentalParameters: read-out: permeability

[
  {
    "recordSmiles": "Cc1cc(-c2ccc(OC[C@@](C)(N)CC(C)C)c(C(F)(F)F)c2)ccn1",
    "Papp A→B at 2 h, 3 µM, ×10⁻⁶ cm/s": 7.1
  },
  {
    "recordSmiles": "CC(C)C[C@](C)(N)COc1ccc(-c2ccnc(C(F)F)c2)nc1C(F)F",
    "Papp A→B at 2 h, 3 µM, ×10⁻⁶ cm/s": 19.9
  },
  {
    "recordSmiles": "Cc1cc(-c2ccc(OC[C@@](C)(N)CC(C)C)c(C(F)F)c2)ccn1",
    "Papp A→B at 2 h, 3 µM, ×10⁻⁶ cm/s": 9.5
  },
  {
    "recordSmiles": "CC(C)C[C@](C)(N)COc1ccc(-c2ccnc(C(F)F)c2)cc1C(F)F",
    "Papp A→B at 2 h, 3 µM, ×10⁻⁶ cm/s": 10.8
  },
  {
    "recordSmiles": "CC(C)C[C@](C)(N)COc1ccc(-c2ccnc(C(F)F)c2)cc1C#N",
    "Papp A→B at 2 h, 3 µM, ×10⁻⁶ cm/s": 22.2
  },
  {
    "recordSmiles": "CC(C)C[C@](C)(N)COc1ccc(-c2ccnc(C(F)F)c2)cc1C(F)(F)F",
    "Papp A→B at 2 h, 3 µM, ×10⁻⁶ cm/s": 3.3
  }
]
